- assayed_target: VEGFR (Homo sapiens, UniProt P35968)
- Construct: against the VEGFR in the FLIPR assay, HUVECs (Walkersville, Md.) were used; endogenous in cells
- Sequence (P35968 20-1356): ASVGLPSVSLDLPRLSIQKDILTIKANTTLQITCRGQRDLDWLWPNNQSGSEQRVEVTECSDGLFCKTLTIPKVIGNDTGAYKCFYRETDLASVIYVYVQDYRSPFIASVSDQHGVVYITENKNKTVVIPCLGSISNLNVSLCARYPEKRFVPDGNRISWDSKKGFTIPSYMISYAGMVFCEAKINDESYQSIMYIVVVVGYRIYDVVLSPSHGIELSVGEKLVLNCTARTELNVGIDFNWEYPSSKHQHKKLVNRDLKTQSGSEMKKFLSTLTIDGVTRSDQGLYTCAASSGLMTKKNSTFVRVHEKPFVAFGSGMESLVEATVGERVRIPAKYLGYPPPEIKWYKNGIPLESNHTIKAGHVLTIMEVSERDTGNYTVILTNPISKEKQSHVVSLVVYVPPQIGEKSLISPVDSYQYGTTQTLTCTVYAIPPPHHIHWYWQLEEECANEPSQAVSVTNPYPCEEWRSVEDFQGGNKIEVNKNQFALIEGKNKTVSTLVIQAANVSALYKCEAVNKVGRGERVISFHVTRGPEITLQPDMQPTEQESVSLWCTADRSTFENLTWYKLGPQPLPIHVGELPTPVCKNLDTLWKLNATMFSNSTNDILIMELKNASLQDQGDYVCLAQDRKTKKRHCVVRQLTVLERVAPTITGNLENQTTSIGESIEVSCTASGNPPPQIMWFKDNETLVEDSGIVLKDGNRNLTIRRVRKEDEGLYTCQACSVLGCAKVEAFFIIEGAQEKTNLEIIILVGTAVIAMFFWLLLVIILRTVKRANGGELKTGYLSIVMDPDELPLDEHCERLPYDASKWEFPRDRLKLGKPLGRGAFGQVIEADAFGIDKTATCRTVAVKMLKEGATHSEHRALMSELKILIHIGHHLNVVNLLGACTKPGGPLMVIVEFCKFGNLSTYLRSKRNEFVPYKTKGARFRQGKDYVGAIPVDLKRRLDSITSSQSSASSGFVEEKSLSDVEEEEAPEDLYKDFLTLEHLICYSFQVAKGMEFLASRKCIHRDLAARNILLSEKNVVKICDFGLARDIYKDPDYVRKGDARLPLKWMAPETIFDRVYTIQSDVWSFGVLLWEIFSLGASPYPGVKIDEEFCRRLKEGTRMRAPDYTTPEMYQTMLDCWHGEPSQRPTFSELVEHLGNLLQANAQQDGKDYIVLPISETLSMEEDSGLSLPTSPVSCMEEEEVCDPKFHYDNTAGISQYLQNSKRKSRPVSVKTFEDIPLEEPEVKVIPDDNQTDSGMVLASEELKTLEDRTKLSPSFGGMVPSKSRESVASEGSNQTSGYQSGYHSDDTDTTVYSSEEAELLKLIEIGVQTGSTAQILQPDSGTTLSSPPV
- procedure_text: Ca2+ release assay (FLIPR) in HUVECs
- condition: VEGF 40 ng/mL, highest concentration tested 1 μm
assay_metric: IC50 (µM)
Note: unit µM is implicit; provide only the numeric part.

[
  {
    "compound": "Cc1[nH]c(C=C2C(=O)Nc3ccccc32)c(C)c1CCC(=O)N1CCNCC1.O=C(O)C(F)(F)F [Example 1, trifluoroacetate]",
    "quantitative_result": 0.02
  }
]

Moving on to another compound below.
GET /values?item= CCN1CCN(C(=O)CCc2c(C)[nH]c(C=C3C(=O)Nc4ccccc43)c2C)CC1.O=C(O)C(F)(F)F [Example 22] &system= VEGFR (Homo sapiens, UniProt P35968) returns IC50: 0.03
